test: Fourteen-day inhalation toxicity/toxicokinetic study in rats; format: in vivo; conditions: both sexes, rat, lung tissue, inhaled, 1.1 mg/kg dose level, recovery period, read-out: lung tissue elimination half-life (t1/2) (converted)
endpoint name: half-life (days)
The figure you give is taken to be in days; do not add the unit.

Item C[C@@H]1[C@H](O)[C@@H](C)/C=C/C=C/C=C/C=C/C=C/C=C/C=C/[C@H](O[C@@H]2O[C@H](C)[C@@H](O)[C@H](N)[C@@H]2O)C[C@@H]2O[C@](O)(C[C@@H](O)C[C@@H](O)[C@H](O)CC[C@@H](O)C[C@@H](O)CC(=O)O[C@H]1C)C[C@H](O)[C@H]2C(=O)O : provide half-life
22

###

test: Fourteen-day inhalation toxicity/toxicokinetic study in rats; type: in vivo; details: both sexes, rat, lung tissue, inhaled, 12.4 mg/kg dose level, recovery period, read-out: lung tissue elimination half-life (t1/2) (converted)
endpoint name: half-life

Item C[C@@H]1[C@H](O)[C@@H](C)/C=C/C=C/C=C/C=C/C=C/C=C/C=C/[C@H](O[C@@H]2O[C@H](C)[C@@H](O)[C@H](N)[C@@H]2O)C[C@@H]2O[C@](O)(C[C@@H](O)C[C@@H](O)[C@H](O)CC[C@@H](O)C[C@@H](O)CC(=O)O[C@H]1C)C[C@H](O)[C@H]2C(=O)O [amphotericin B] : provide half-life
34 days

###

Test: in vivo
Set-up: species or system rabbits
Conditions: rabbit, 1.5 mg/kg
Method: This Example describes results obtained in the plasma and lung tissue only. The lot number of the formulation was N020042. […] The study included two groups each comprised of 48 rabbits. […] Plasma and lung tissue were collected and analyzed for amphotericin B content using LC/MS-MS. Lower limits of quantitation (LLQ) of the assays were 5 ng/mL in plasma and 20 ng/g in lung tissue.
endpoint name: Tmax (h)
The figure you give is taken to be in h; do not add the unit.

Item C[C@@H]1[C@H](O)[C@@H](C)/C=C/C=C/C=C/C=C/C=C/C=C/C=C/[C@H](O[C@@H]2O[C@H](C)[C@@H](O)[C@H](N)[C@@H]2O)C[C@@H]2O[C@](O)(C[C@@H](O)C[C@@H](O)[C@H](O)CC[C@@H](O)C[C@@H](O)CC(=O)O[C@H]1C)C[C@H](O)[C@H]2C(=O)O : provide Tmax
24
